- Tested on: ACHN renal
- Protocol Notes: NCI-60 one-dose screen, 48 h
- Measurement Setup: 10 µM unless noted
This is part of a sample that, as a whole, favours compounds with a hit. Of some 83,000 tested, about 20% had one in any assay. Calls of active or inactive are those of the source. The calls were made as follows: active = growth percent below 10; inactive = the rest.
Answer with one of the outcomes given here: active, inactive

Record excerpt, results attached:
1) Oc1ccc(CSc2nnc(-c3ccc(Br)cc3)n2-c2ccccc2)c2cccnc12    inactive
2) Cc1cccc(NC(c2cc3cccc4ccc5cccc2c5c43)c2nnnn2C(C)(C)C)c1C (stereo not drawn)    inactive
3) C=CCn1c(SCC(=O)Nc2cccc(C(=O)/C=C/c3ccccc3)c2)nc2ccccc2c1=O    inactive

Query block: Identify the outcome logged in this assay for the molecule shown: N#Cc1c(-c2cccs2)cc(-c2cnccn2)nc1SCC(=O)NNC(=S)Nc1ccc(F)cc1
Result block: inactive

Query block: Lab log entry: Oc1ccc(CSc2nnc(-c3ccncc3)o2)c2cccnc12 — outcome as called in the assay?
Result block: inactive

Query block: Dear colleague, could you share the recorded outcome for Oc1ccc(-c2nnc(SCc3ccc(O)c4ncccc34)n2-c2ccccc2)cc1 when you have a moment?
Result block: active

Query block: Status in this test for C#C[C@]1(O)CC[C@H]2[C@@H]3CC=C4c5sc(-c6ccc(OC)cc6)nc5CC[C@]4(C)[C@H]3CC[C@@]21C ?
Result block: inactive

Query block: // param item: COc1ccc2c(c1)c(-c1nnc(N)nc1-c1cn(C)c3ccccc13)cn2C ; yields the recorded call
Result block: inactive

Query block: What is the recorded call for this molecule in the test? C=C(C)[C@@H]1CC[C@]2(C)[C@H](CC=C3[C@@H]4CC(C)(C)CC[C@]4(C(=O)NCC#CCN4CCN(C)CC4)CC[C@]32C)[C@@]1(C)CCC#N
Result block: inactive

Query block: Assay outcome for Nc1cc(F)ccc1NC(=O)c1ccc(NC(=O)C/C=C/c2cccnc2)cn1 : what was it?
Result block: inactive

Query block: Give the logged outcome of this assay for the following molecule: C#Cc1ccc(NC(=O)c2ccc(/C=C/C(=O)c3nccn3C)cc2)c(F)c1
Result block: inactive

###

- System: SF-295 CNS
- Protocol Notes: NCI-60 one-dose screen, 48 h
- Measurement Setup: 10 µM unless noted
Compounds without any hit were thinned out: in the full panel of roughly 83,000, 20% have a hit. The source made the active and inactive calls. How the source made its calls: active means growth percent below 10; inactive means the rest.
Parameter call: string, one of 1 (yes) (active), 0 (no) (inactive)

# example entries with known answers
1) C=CCn1c(SCC(=O)Nc2cccc(C(=O)/C=C/c3ccccc3Cl)c2)nc2ccccc2c1=O    0 (no)
2) O=C(CN1CCN(c2cc(=O)n(-c3ccccc3)c3ccccc23)CC1)Nc1ccc([N+](=O)[O-])cc1    0 (no)
3) Cc1ccc(-c2nnc3sc(C4=Cc5ccccc5OC=C4)nn23)cc1    0 (no)

Query block: Hello, I am checking results. What call was entered for Oc1ccc(CSc2nnc(-c3ccc(Oc4ccccc4)cc3)n2-c2ccccc2)c2cccnc12 ?
Result block: 1 (yes)

Query block: Tell me the recorded outcome of this test for CCOC(=O)C1=C(C)Nc2nc3ccccc3n2C1c1ccccc1 (stereo unspecified) .
Result block: 0 (no)

Query block: Test call for this compound, please: ClC(Cl)c1nc(-c2cccs2)n2nc(-c3ccccc3)cc2n1
Result block: 1 (yes)

Query block: Answer briefly: the call reported for COc1ccc(-c2nn(-c3ccccc3)cc2/C=C/C(=O)c2ccc(NC(=O)CCCCCCC(=O)NO)cc2)cc1 in this assay.
Result block: 0 (no)

Query block: Recorded test outcome, item O=C(/C=C1\C=CN(CCCCF)c2ccccc21)n1ccc2ccccc21
Result block: 0 (no)

Query block: Which outcome was assigned to O=C1c2c(c3c4cccnc4[nH]c3c3ccc4ccccc4c23)C(=O)N1CCN1CCCCC1 in this test?
Result block: 0 (no)

Query block: For this compound, state the assay outcome: NC(=O)c1c(NC(=O)c2cccc(OC(F)(F)F)c2)sc2c1CCC(=O)C2
Result block: 0 (no)

###

- Test system: TK-10 renal
- Protocol Notes: NCI-60 one-dose screen, 48 h (100 = growth as untreated, 0 = no growth, -100 = all killed)
- Measurement Setup: 10 µM unless noted
- Method: Growth inhibition of the TK-10 human tumor cell line is measured as a screen for anti-cancer activity. Cells are grown in 96 well plates and exposed to the test compound for 48 hours. Compounds are tested at a single concentration, which is 10^-5 M for most compounds. The reported endpoint is percent growth (GI% or GIPRCNT), where numbers from 0 - 100% represent growth inhibition, and numbers from -100% - 0 represent cell death. For example, a value of 40 represents 60% growth inhibition. […]
About 83,000 compounds went through this panel and 20% of them were active in at least one assay; those are over-represented in the sample as a whole. The source made the active and inactive calls. The calls were made as follows: active = growth percent below 10; inactive = the rest.
Recorded Endpoint: growth

1) COc1ccc(S(=O)(=O)NCCCNc2nccc(-n3cnc4ccccc43)n2)cc1    103% (inactive)

Query block: Item C/C(=N\NC(=O)CSc1nc2sc3c(c2c(=O)n1-c1ccccc1)CCC(C)C3)c1ccc(Cl)cc1 (centres undefined) has what recorded growth?
Result block: 32.8% (inactive)

###

- System: SK-MEL-5 melanoma
- Protocol Notes: NCI-60 one-dose screen, 48 h
- Measurement Setup: 10 µM unless noted
Compounds without any hit were thinned out: in the full panel of roughly 83,000, 20% have a hit. Calls of active or inactive are those of the source. How the source made its calls: active means growth percent below 10; inactive means the rest.
Select the correct class. Options are active, inactive and nothing else.

Solved cases below.
1) CC(C)(C)n1nnnc1C(Nc1nccs1)c1cc2cccc3ccc4cccc1c4c32 (stereo not given)    inactive
2) O=c1oc2ccc(-c3ccc(F)cc3F)cc2c(=O)n1-c1cccc(C(F)(F)F)c1    active
3) N=c1c2cc(-c3ccccc3)oc2ncn1/N=C/c1ccccc1    inactive
4) CC1CCN(S(=O)(=O)c2ncsc2-c2ccccc2)CC1    inactive
5) O=C1Nc2cc(OC(F)(F)F)ccc2Oc2ccc(-c3ccnc(N4CC[C@H](O)C4)c3)cc21    active

Query block: // param item: N/C(=N\c1nc2ccc([N+](=O)[O-])cc2s1)C(Cl)(Cl)Cl ; yields the recorded call
Result block: inactive

Query block: What did this assay record as the result for COc1ccc(CCN2C(=O)CSC2=S)cc1OC ?
Result block: inactive

Query block: Record request — test call for O=C1CSC(=O)N1Cc1cc2ccccc2nc1Cl
Result block: inactive

Query block: Recorded test call requested for O=c1cc(-c2ccccc2)nc2sc(-c3c[nH]c4ccc(Br)cc34)nn12
Result block: inactive

Query block: # lookup: test call for COc1c([C@@H](CC(C)C)OC(C)=O)ccc2c1C(=O)OCc1cc(C)cc(O)c1O2
Result block: active

###

- System: SW-620 colon
- Protocol Notes: NCI-60 one-dose screen, 48 h (100 = growth as untreated, 0 = no growth, -100 = all killed)
- Measurement Setup: 10 µM unless noted
About 83,000 compounds went through this panel and 20% of them were active in at least one assay; those are over-represented in the sample as a whole.
Could you mark each record YES if its growth falls strictly under 20%, and NO if it equals or exceeds it?

Worked cases, answers included:
1) Cc1cc(=O)n2nc(-c3cn(C)c4ccc(Cl)cc34)sc2n1    NO
2) Nc1nc(-c2cccc([N+](=O)[O-])c2)c(N=Nc2ccccc2Cl)s1    NO
3) COc1ccccc1N1CCN(C2=NN=C(c3cccc(Cl)c3)c3ccccc3C2)CC1    NO
4) O=C(Nc1cc(F)cc2cccnc12)c1cnc(N2CCOCC2)cn1    NO
5) C/C=C/[C@@H]1C=C[C@@H]2C[C@H](C)CC[C@H]2[C@]1(C)/C(O)=C1/C(=O)[C@H](CO)N(C)C1=O    NO

Query block: Please check: growth for COc1cc(/C=C2\SC(=O)NC2=O)ccc1OCC(=O)Nc1ccc(C(=O)/C=C/c2cc3ccccc3nc2Cl)cc1 , strictly under 20% or not?
Result block: NO

###

- Tested on: NCI/ADR-RES ovarian
- Protocol Notes: NCI-60 one-dose screen, 48 h (100 = growth as untreated, 0 = no growth, -100 = all killed)
- Measurement Setup: 10 µM unless noted
This is part of a sample that, as a whole, favours compounds with a hit. Of some 83,000 tested, about 20% had one in any assay.
Kindly note that classification relies on growth with these boundaries: lower range (below 20%), middle range (20% to below 80%), upper range (80% or more)

1) Nc1c(C(=O)c2ccccc2)sc2nc(-c3cnccn3)cc(-c3cccs3)c12    upper range

Query block: Could you tell me which band CC(=O)Nc1cccc(-n2cnc3cc(-c4ccc(O)cc4)ccc32)c1 belongs to?
Result block: lower range

Query block: Category of COc1ccc(-c2nnc(SCc3ccc(O)c4ncccc34)n2-c2ccccc2)cc1 , please.
Result block: lower range

Query block: Consider O=S(=O)(Nc1cc(Cl)c(F)c(Cl)c1)c1ccc(-c2cnc(C3CC3)o2)cc1 . To which growth class does it belong?
Result block: middle range

Query block: Which growth band matches CC1OC(O[C@@H]2[C@H](O)C(CO)OC(O[C@H]3COC(O[C@H]4CC[C@]5(C)[C@H]6CC[C@]78OC[C@@]9(CC[C@](C)(C=O)C[C@H]97)C(=O)C[C@@]8(C)[C@]6(C)CC[C@H]5C4(C)C)[C@@H](O)[C@@H]3O)[C@H]2OC2OC[C@@H](O)[C@@H](O)[C@@H]2O)[C@@H](O)[C@@H](O)[C@H]1O (stereo not given in full) ?
Result block: upper range

Query block: Record COc1cc(/C=N/n2cnc3oc(-c4ccccc4)cc3c2=N)cc(CN2CCCC2)c1O — which class?
Result block: lower range
